target: Fibroblast growth factor receptor 2 (Homo sapiens); assay: Inhibition of recombinant His-tagged human FGFR2 (403 to 822 residues) cytoplasmic domain expressed in baculovirus expression system using Tyr 04 peptide as substrate after 1 hr in presence of ATP by Z'-LYTE assay
pIC50: −log10 of the molar value.
parameter measured: pIC50

Query string: # input compound: C[C@@H]1C[C@H]1C(=O)N1CCN(c2cnc(C#N)c(-c3cnn(C)c3)n2)C[C@H]1C ; wanted: its pIC50
Result string: < 4.00

----------
target: Tyrosine-protein kinase JAK2 (Homo sapiens); assay: Inhibition of human recombinant GST tagged JAK2 catalytic domain expressed in baculovirus expression system using Tyr6 peptide as substrate measured after 1 hr in presence of ATP by Z'-LYTE assay
parameter measured: IC50

Query string: # input compound: C[C@@H]1C[C@H]1C(=O)N1CCN(c2cnc(C#N)c(-c3cnn(C)c3)n2)C[C@H]1C ; wanted: its IC50
Result string: > 100 µM

----------
test: Half life in Wistar Han rat at 0.05 mg/kg, iv administered as cassette dose; type: ADME, organism-based; settings: in vivo
Please provide measured half-life for the entries that follow.
Answers are plain numbers, in min.

> print(dat)
                            chemical.smiles  recorded.value
1  Cn1cc(-c2ncc(C#N)c(N3C[C@@H]4C[C@H]3CN4C(=O)C3CC3)n2)cn1              12
2  Cn1cc(-c2ncc(C#N)c(N3C[C@@H]4C[C@H]3CN4c3cccc(F)c3)n2)cn1              66

// switching to the query compound
Query string: # input compound: N#Cc1cnc(-c2cccnc2)nc1N1C[C@@H]2C[C@H]1CN2c1cccc(F)c1 ; wanted: its half-life
Result string: 36

----------
Target: Tyrosine-protein kinase TXK (Homo sapiens)
Sequence (P42681 whole entry): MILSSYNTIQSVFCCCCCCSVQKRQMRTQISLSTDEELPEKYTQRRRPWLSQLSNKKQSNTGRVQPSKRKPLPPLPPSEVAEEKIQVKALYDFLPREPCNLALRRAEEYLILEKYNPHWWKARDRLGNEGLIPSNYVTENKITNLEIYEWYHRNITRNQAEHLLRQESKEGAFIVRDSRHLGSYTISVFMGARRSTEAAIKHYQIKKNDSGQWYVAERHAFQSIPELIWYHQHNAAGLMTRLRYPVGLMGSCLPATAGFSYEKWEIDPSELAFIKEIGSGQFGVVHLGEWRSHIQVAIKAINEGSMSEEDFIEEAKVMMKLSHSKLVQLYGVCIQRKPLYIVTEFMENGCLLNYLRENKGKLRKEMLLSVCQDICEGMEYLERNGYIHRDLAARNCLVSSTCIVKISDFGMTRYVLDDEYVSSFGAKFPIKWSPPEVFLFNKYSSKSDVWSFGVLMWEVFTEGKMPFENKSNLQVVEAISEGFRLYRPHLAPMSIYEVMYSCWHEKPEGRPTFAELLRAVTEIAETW
Assay: Inhibition of recombinant human GST-tagged TXK catalytic domain (260 to 527 residues) expressed in baculovirus expression system using tyrosine-6 peptide as substrate incubated for 60 mins in presence of ATP by Z'-LYTE assay
parameter measured: IC50

Query string: # input compound: C[C@@H]1C[C@H]1C(=O)N1CCN(c2cnc(C#N)c(-c3cnn(C)c3)n2)C[C@H]1C ; wanted: its IC50
Result string: > 100 µM

----------
target: Serine/threonine-protein kinase Nek7 (Homo sapiens, UniProt Q8TDX7)
Sequence (Q8TDX7 whole entry): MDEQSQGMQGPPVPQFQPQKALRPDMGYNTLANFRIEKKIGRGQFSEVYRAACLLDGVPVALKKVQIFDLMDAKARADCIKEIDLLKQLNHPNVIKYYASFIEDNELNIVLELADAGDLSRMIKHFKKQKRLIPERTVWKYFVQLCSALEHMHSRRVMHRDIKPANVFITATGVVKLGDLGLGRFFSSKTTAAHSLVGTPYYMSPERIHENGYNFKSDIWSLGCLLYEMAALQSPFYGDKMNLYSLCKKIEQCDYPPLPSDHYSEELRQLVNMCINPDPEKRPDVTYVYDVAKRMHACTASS
parameter measured: IC50

Query string: Identify the measured IC50 of C[C@@H]1C[C@H]1C(=O)N1CCN(c2cnc(C#N)c(-c3cnn(C)c3)n2)C[C@H]1C for Serine/threonine-protein kinase Nek7 (Homo sapiens, UniProt Q8TDX7).
Result string: > 100 µM

----------
target: MAO-A (Homo sapiens, UniProt P21397); assay: Inhibition of recombinant full-length human MAO-A expressed in insect cells at 10 uM using kynuramine as substrate after 60 mins by spectrophotometric analysis relative to control; settings: probe kynuramine
Sequence (P21397 whole entry): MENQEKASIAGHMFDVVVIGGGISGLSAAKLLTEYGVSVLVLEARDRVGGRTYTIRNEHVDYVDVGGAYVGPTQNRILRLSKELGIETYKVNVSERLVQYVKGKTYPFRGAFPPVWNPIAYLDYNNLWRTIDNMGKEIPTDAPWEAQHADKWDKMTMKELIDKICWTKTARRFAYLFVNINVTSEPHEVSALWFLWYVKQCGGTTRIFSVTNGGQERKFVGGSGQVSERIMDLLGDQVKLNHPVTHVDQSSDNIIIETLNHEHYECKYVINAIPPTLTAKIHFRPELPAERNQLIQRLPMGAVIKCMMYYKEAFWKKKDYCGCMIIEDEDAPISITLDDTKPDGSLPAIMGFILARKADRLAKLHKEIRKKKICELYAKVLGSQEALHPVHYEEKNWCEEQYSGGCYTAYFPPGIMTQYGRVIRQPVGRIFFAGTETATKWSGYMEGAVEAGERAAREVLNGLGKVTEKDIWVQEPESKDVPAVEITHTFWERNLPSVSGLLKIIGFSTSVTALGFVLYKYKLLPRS
parameter measured: inhibition at 1 h, 10 µM

Query string: # input molecule: C[C@@H]1C[C@H]1C(=O)N1CCN(c2cnc(C#N)c(-c3cnn(C)c3)n2)C[C@H]1C ; wanted: its inhibition at 1 h, 10 µM
Result string: 11%

----------
biological target: Mitogen-activated protein kinase 9 (Homo sapiens, UniProt P45984); experiment: Inhibition of recombinant full length human His-tagged JNK2 expressed in baculovirus expression system using serine/threonine-4 peptide as substrate incubated for 60 mins in presence of ATP by Z'-LYTE assay
Sequence (P45984 whole entry): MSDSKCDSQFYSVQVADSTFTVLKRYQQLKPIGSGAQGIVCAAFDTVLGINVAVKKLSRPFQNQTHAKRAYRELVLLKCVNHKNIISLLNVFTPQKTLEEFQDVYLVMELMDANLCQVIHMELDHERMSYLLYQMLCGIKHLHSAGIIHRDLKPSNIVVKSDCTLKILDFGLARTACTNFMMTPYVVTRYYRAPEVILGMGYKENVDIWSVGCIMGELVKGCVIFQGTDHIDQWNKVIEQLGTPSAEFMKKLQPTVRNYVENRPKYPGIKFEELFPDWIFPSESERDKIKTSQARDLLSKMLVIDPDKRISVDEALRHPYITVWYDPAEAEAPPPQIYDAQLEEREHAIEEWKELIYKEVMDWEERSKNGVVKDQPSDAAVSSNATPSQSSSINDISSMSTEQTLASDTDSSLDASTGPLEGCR
parameter measured: IC50

Query string: # input molecule: C[C@@H]1C[C@H]1C(=O)N1CCN(c2cnc(C#N)c(-c3cnn(C)c3)n2)C[C@H]1C ; wanted: its IC50
Result string: > 100 µM

----------
biological target: Receptor-type tyrosine-protein kinase FLT3 (Homo sapiens, UniProt P36888); assay: Inhibition of recombinant human His-tagged FLT3 cytoplasmic domain (564 to 958 residues) expressed in baculovirus expression system using tyrosine-2 peptide as substrate incubated for 60 mins in presence of ATP by Z'-LYTE assay
pIC50: −log10 of the molar value.
parameter measured: pIC50

Query string: # input compound: C[C@@H]1C[C@H]1C(=O)N1CCN(c2cnc(C#N)c(-c3cnn(C)c3)n2)C[C@H]1C ; wanted: its pIC50
Result string: < 4.00

----------
target: Tyrosine-protein kinase JAK1 (Homo sapiens); test: Inhibition of human recombinant GST tagged JAK1 expressed in baculovirus expression system using Tyr6 peptide as substrate measured after 1 hr in presence of ATP by Z'-LYTE assay
Sequence (P23458 whole entry): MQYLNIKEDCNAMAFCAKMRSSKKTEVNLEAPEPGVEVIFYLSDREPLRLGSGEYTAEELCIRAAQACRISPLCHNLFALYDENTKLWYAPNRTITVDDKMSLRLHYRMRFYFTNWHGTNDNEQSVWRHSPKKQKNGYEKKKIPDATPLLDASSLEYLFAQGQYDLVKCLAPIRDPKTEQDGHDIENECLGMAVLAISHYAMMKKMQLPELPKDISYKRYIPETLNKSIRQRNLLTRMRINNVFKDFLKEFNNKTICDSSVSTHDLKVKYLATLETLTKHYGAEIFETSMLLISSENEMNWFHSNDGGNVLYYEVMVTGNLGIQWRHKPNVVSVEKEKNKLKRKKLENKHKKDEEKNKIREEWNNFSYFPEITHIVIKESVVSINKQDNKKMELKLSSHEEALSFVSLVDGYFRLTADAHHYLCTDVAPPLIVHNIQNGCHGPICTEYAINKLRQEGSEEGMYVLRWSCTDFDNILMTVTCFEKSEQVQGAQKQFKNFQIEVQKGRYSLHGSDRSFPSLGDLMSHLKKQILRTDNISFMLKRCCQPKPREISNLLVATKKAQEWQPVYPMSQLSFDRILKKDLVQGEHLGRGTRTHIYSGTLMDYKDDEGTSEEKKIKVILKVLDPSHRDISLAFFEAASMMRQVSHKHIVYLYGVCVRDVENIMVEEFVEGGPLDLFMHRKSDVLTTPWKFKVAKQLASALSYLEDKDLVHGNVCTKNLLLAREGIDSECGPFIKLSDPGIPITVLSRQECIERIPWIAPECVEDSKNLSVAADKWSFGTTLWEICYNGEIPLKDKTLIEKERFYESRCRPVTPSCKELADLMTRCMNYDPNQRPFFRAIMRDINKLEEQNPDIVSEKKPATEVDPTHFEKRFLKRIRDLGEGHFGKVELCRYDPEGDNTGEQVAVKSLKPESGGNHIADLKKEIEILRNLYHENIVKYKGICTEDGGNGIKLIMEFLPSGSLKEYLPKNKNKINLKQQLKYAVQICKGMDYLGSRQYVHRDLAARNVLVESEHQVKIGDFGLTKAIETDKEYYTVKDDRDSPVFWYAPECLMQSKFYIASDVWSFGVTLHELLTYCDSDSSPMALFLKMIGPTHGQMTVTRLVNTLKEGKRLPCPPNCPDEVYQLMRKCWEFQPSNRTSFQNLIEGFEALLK
parameter measured: IC50

Query string: Identify the measured IC50 of C[C@@H]1C[C@H]1C(=O)N1CCN(c2cnc(C#N)c(-c3cnn(C)c3)n2)C[C@H]1C for Tyrosine-protein kinase JAK1 (Homo sapiens).
Result string: > 100 µM

----------
biological target: Insulin receptor (Homo sapiens); assay: Inhibition of recombinant human GST-tagged INSR cytoplasmic domain expressed in baculovirus expression system using tyrosine-1 peptide as substrate incubated for 60 mins in presence of ATP by Z'-LYTE assay
Sequence (P06213 28-758 limits assumed): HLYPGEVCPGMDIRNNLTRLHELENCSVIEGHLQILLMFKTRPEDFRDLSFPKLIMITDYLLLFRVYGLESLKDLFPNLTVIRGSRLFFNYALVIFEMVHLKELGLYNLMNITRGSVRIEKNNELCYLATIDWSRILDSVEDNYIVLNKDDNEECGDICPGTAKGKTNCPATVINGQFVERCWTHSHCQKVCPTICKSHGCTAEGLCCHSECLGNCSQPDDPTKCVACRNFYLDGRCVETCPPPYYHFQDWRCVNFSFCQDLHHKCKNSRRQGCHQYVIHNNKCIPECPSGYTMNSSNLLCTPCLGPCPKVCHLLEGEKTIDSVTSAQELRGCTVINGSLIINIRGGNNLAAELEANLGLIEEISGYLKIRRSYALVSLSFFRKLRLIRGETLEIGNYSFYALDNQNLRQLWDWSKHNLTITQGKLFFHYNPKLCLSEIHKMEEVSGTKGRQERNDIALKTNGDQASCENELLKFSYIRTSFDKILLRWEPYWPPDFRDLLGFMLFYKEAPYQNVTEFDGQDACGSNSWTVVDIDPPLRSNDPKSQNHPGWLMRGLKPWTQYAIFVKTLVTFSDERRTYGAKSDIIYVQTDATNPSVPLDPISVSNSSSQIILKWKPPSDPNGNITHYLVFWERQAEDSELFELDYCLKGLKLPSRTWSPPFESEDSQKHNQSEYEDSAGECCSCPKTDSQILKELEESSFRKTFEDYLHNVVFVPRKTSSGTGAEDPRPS
Sequence (P06213 763-1382 limits assumed): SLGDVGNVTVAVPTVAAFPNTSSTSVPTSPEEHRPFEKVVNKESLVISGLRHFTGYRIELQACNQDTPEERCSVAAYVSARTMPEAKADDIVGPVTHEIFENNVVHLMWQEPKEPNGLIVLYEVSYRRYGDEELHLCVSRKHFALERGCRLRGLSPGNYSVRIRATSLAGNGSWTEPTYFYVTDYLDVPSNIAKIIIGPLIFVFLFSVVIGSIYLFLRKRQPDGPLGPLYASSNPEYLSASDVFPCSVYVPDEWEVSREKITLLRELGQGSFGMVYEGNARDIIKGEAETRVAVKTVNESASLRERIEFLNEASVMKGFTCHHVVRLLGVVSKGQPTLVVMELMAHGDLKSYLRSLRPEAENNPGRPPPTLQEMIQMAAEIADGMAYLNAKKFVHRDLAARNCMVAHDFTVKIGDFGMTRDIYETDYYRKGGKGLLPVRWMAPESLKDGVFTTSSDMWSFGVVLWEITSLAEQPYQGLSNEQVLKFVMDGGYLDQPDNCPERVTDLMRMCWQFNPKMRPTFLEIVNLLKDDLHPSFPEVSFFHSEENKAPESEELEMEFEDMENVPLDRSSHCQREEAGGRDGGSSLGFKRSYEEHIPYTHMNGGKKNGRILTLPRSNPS
parameter measured: IC50

Query string: # input compound: C[C@@H]1C[C@H]1C(=O)N1CCN(c2cnc(C#N)c(-c3cnn(C)c3)n2)C[C@H]1C ; wanted: its IC50
Result string: > 100 µM

----------
biological target: UniProt P00533; assay: Inhibition of recombinant human GST-tagged EGFR expressed in baculovirus expression system using tyr-04 peptide as substrate incubated for 60 mins in presence of ATP by Z'-LYTE assay
parameter measured: IC50

Query string: # input compound: C[C@@H]1C[C@H]1C(=O)N1CCN(c2cnc(C#N)c(-c3cnn(C)c3)n2)C[C@H]1C ; wanted: its IC50
Result string: > 100 µM

----------
molecular target: MAO-B (Homo sapiens, UniProt P27338); test: Inhibition of recombinant full-length human MAO-B expressed in insect cells at 10 uM using kynuramine as substrate after 60 mins by spectrophotometric analysis relative to control; details: probe kynuramine
parameter measured: inhibition at 1 h, 10 µM (%)
Answers are plain numbers, in %.

Query string: # input molecule: C[C@@H]1C[C@H]1C(=O)N1CCN(c2cnc(C#N)c(-c3cnn(C)c3)n2)C[C@H]1C ; wanted: its inhibition at 1 h, 10 µM
Result string: 11

----------
molecular target: Cyclin-dependent kinase 5/CDK5 activator 1 (Homo sapiens); test: Inhibition of recombinant full length human His-tagged CDK5/p35 expressed in baculovirus expression system using serine/threonine-12 peptide as substrate incubated for 60 mins in presence of ATP by Z'-LYTE assay
Sequence (Q00535 whole entry): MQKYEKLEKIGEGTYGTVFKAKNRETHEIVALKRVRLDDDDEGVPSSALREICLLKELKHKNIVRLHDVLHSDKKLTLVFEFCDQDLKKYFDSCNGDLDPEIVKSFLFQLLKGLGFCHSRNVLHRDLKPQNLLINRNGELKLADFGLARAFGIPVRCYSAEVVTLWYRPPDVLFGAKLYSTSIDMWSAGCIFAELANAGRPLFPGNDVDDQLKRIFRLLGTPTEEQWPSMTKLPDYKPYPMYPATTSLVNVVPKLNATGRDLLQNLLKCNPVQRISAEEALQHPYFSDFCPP
Sequence (Q15078 whole entry, further chain): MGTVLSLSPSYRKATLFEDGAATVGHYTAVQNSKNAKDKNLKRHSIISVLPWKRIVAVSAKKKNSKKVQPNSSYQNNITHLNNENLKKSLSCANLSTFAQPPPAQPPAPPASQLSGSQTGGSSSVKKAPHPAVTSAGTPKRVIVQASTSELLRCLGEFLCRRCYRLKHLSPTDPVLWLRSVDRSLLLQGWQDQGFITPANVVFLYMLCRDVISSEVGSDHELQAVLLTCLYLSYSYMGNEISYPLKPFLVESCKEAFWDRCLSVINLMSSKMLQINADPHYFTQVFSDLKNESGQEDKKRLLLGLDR
pIC50: −log10 of the molar value.
parameter measured: pIC50

Query string: # input compound: C[C@@H]1C[C@H]1C(=O)N1CCN(c2cnc(C#N)c(-c3cnn(C)c3)n2)C[C@H]1C ; wanted: its pIC50
Result string: < 4.00

----------
experiment: Clearance in dog plasma at 0.5 mg/kg, iv or 1 mg/kg, po; assay type: ADME, organism-based, Canis lupus familiaris
parameter measured: clearance (mL/min/kg)
Numbers only, in mL/min/kg.

Query string: # input compound: C[C@@H]1C[C@H]1C(=O)N1CCN(c2cnc(C#N)c(-c3cnn(C)c3)n2)C[C@H]1C ; wanted: its clearance
Result string: 8

----------
molecular target: Serine/threonine-protein kinase Chk1 (Homo sapiens); assay: Inhibition of recombinant human full-length His-tagged CHEK1 expressed in baculovirus expression system using FRET-labeled Ser/Thr 19 peptide as substrate measured after 1 hr in presence of ATP by Z'-lyte assay
pIC50: −log10 of the molar value.
parameter measured: pIC50

Query string: Identify the measured pIC50 of C[C@@H]1C[C@H]1C(=O)N1CCN(c2cnc(C#N)c(-c3cnn(C)c3)n2)C[C@H]1C for Serine/threonine-protein kinase Chk1 (Homo sapiens).
Result string: < 4.00

----------
target: Casein kinase II subunit alpha' (Homo sapiens, UniProt P19784); assay: Inhibition of recombinant human full-length GST-tagged CSNK2A2 expressed in baculovirus expression system using FRET-labeled Ser/Thr 11 peptide as substrate measured after 1 hr in presence of ATP by Z'-lyte assay
Sequence (P19784 whole entry): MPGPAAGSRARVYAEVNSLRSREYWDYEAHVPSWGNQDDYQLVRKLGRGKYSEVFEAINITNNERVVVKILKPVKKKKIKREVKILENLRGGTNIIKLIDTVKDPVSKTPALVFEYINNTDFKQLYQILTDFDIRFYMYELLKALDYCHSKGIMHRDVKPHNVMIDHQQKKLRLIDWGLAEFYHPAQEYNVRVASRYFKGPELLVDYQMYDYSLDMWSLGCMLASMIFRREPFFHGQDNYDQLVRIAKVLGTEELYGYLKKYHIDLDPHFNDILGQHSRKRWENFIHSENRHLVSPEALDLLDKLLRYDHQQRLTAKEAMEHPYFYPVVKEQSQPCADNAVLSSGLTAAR
parameter measured: IC50

Query string: # input compound: C[C@@H]1C[C@H]1C(=O)N1CCN(c2cnc(C#N)c(-c3cnn(C)c3)n2)C[C@H]1C ; wanted: its IC50
Result string: > 100 µM

Source listed as ChEMBL document CHEMBL4602617.
